# assay comment: VP16 transactivation inhibitors, counter-screen for SRC1 inhibitor project, cell-based, luminescence, high throughput (AID 588824)
# conditions used: cell-based VP16 transactivation luciferase luminescence; at 3.6 µM; stronger effect = higher value
Exercise: state measured inhibition for each of the molecules provided.
The answer is to be given in %; state only the numeric part.

Given O=C(COc1ccccc1O)NNc1ccccc1 , state its recorded inhibition.
29.2

Given Nc1nc(=S)c2ncn([C@@H]3O[C@H](CO)[C@@H](O)[C@H]3O)c2[nH]1 , state its recorded inhibition.
29.9

Given c1ccc(CC2CCN(c3ncnc4sccc34)CC2)cc1 , state its recorded inhibition.
29.4

---

# experimental target: Nuclear receptor coactivator 3 (Homo sapiens) (UniProt Q9Y6Q9)
# Sequence (Q9Y6Q9 whole entry, looked up): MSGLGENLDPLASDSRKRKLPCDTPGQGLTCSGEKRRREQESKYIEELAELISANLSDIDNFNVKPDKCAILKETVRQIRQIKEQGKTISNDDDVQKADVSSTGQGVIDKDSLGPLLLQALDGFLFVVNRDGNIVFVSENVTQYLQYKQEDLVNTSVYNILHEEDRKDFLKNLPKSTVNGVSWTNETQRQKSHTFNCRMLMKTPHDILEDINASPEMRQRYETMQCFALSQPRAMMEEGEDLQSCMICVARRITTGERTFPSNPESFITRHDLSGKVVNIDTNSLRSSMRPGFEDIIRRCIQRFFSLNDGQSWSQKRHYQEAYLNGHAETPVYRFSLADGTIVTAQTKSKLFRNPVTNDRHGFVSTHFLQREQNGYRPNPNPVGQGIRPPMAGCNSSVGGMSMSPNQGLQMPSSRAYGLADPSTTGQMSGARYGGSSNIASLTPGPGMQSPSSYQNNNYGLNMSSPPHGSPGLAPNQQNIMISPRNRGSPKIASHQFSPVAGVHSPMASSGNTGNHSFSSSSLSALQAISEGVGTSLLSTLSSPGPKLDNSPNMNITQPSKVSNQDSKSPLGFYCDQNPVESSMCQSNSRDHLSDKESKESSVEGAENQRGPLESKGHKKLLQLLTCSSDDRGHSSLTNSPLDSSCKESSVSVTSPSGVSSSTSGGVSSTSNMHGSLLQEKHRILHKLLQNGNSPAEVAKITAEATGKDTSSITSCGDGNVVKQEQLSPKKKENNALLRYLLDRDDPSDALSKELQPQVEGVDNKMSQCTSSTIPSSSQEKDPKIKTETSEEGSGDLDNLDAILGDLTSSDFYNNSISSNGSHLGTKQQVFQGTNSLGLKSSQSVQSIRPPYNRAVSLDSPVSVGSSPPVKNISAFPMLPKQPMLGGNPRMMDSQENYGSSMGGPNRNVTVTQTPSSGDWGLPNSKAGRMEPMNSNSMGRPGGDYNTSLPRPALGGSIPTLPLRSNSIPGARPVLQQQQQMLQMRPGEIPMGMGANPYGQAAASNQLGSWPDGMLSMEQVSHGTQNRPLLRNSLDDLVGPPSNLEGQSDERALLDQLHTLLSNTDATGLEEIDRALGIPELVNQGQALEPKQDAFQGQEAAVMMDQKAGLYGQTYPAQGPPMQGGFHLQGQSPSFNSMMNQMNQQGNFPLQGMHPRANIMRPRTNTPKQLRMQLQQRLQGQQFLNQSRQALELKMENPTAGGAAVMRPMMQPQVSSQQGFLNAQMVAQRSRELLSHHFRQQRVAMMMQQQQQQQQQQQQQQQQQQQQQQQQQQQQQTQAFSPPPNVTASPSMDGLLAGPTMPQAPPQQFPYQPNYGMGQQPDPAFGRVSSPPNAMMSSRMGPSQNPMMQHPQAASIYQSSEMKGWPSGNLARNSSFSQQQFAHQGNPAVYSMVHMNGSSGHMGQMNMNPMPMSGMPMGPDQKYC
# assay comment: SRC3 coactivator transcriptional activity inhibitors, confirmation, cell-based, luminescence, quadruplicate (AID 588792);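 further: 0% = DMSO treated cells and 100% = gossypol at 36 µM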
# conditions used: HEK293 GAL4-SRC3 luciferase reporter, at 3.6 µM
Calls of active or inactive are those of the source.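 How the source made its calls: active means mean inhibition over 43.08%, the solvent-only control mean plus 3 SD; inactive means the rest.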
// classify into active, inactive

Record lookup: outcome of this test for CC1Sc2ccc(Cl)cc2-c2nc(N)ncc21 (stereo not given) ?
active

Record lookup: outcome of this test for Cc1ccc(NC(=O)C2CCN(c3ncnc4c3nc3n4CCCCC3)CC2)cc1Cl ?
inactive

Record lookup: outcome of this test for CCc1cccc(CC)c1NC(=O)CSc1nc2ccc(N3C(=O)C4C(C3=O)[C@H]3C=C[C@@H]4C3)cc2s1 (stereo not given in full) ?
inactive

Record lookup: outcome of this test for NC(=O)c1cc([N+](=O)[O-])ccc1NCc1ccc(O)cc1 ?
inactive

Record lookup: outcome of this test for O=C(Nc1ccn(Cc2ccccc2F)n1)c1ccc(COc2ccccc2Cl)cc1 ?
inactive

Record lookup: outcome of this test for O=c1c2ccccc2oc2cc(C#CC3(O)CCCCC3)ccc12 ?
inactive

Record lookup: outcome of this test for COc1ccc(/C=C/C(=O)C23CC4CC(CC(C4)C2)C3)cc1CN1CCOCC1 ?
inactive

Record lookup: outcome of this test for NC(=O)c1sc2nc3c(c(-c4ccco4)c2c1N)CCCC3 ?
active

Record lookup: outcome of this test for CCn1c(Oc2ccccc2F)nc2c1c(=O)n(C)c(=O)n2C ?
active

Record lookup: outcome of this test for Oc1cccc2cc(Nc3ccccc3)cnc12 ?
active

Record lookup: outcome of this test for CCOc1c(Br)cc(CNc2ccc3c(c2)OCCO3)cc1OC ?
inactive

Record lookup: outcome of this test for COc1ccc(-c2cn[nH]c2N)c(OC)c1 ?
active

Record lookup: outcome of this test for C=CS(=O)(=O)N(Cc1ccc(Cl)c(Cl)c1)C[C@@H](O)CO ?
inactive

Record lookup: outcome of this test for Cc1ccc(C(=O)Nc2sc(C)c(-c3ccccc3)c2C(N)=O)cc1[N+](=O)[O-] ?
active

Record lookup: outcome of this test for Cc1cc(Br)c(OCc2ccc(C(=O)N/N=C/c3ccc[nH]3)cc2)c(Br)c1 ?
active

---

# System: transactivating tegument protein VP16 (Human herpesvirus 1), Gal4-VP16 luciferase reporter
# assay comment: VP16 transactivation inhibitors, counter-screen for SRC3 inhibitor project, cell-based, luminescence, high throughput (AID 588794)
# conditions used: mammalian cells, VP16-driven luciferase reporter luminescence; at 3.6 µM; stronger effect = higher value
property: inhibition (%)
The answer is to be given in %; state only the numeric part.

Given CCc1ccc2[nH]c3nc(N/N=C/c4cccc(O)c4)nnc3c2c1 , state its recorded inhibition.
64.4

Given Cc1cc(C(=O)COc2cccnc2[N+](=O)[O-])c(C)n1-c1ccccc1 , state its recorded inhibition.
-52.9

Given Nc1nc2c(F)cccc2s1 , state its recorded inhibition.
0.2

Given Cc1cc(C(=O)NNc2ccc(F)cc2)no1 , state its recorded inhibition.
7.33

Given CCCCNS(=O)(=O)c1ccc(S(=O)(=O)NCc2ccncc2)cc1 , state its recorded inhibition.
25.1

Given Nc1ccccc1Nc1cccc(C(F)(F)F)c1 , state its recorded inhibition.
18.6

Given CC1(C)CC(N2CCN(C(c3ccccc3)c3ccccc3)CC2)=CC(=[N+]2CCCCC2)C1 , state its recorded inhibition.
87.8

Given O=C(/C(=C/c1ccc(Cl)cc1)c1nc2ccccc2[nH]1)c1cccs1 , state its recorded inhibition.
61.9

Given CC1CCN(Cc2c(C(=O)N/N=C/c3cc(Br)ccc3O)nnn2-c2nonc2N)CC1 , state its recorded inhibition.
83.5

Given c1nc(NCc2ccc3c(c2)OCO3)c2cc(-c3ccoc3)ccc2n1 , state its recorded inhibition.
51.5

Given Cc1ccccc1C(=O)N1CCN(c2ccc(NC(=O)CSc3ccc(Cl)cc3)cc2)CC1 , state its recorded inhibition.
45.8

Given O=C(NCc1cccs1)C1CCN(S(=O)(=O)c2ccccc2F)CC1 , state its recorded inhibition.
-0.48

Given COc1ccc(Cc2nnc(N/N=C/c3ccc(O)cc3)[nH]c2=O)cc1OC , state its recorded inhibition.
81

---

# experimental target: Nuclear receptor coactivator 3 (Homo sapiens)
# assay comment: SRC3 coactivator transcriptional activity inhibitors, confirmation, cell-based, luminescence, quadruplicate (AID 588792);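 further: 0% = DMSO treated cells and 100% = gossypol at 36 µM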
# conditions used: HEK293 GAL4-SRC3 luciferase reporter, at 3.6 µM, stronger effect = higher value
Activity calls are given as the source filed them.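 The calls were made as follows: active = mean inhibition over 43.08%, the solvent-only control mean plus 3 SD; inactive = the rest.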
Exercise: state measured inhibition for each of the compounds provided.

Given Cc1cc(C)nc(SCC(=O)Nc2ccnc3ccccc23)n1 , state its recorded inhibition.
12.2% (inactive)

Given COc1cc(Cl)cc(/C=N\NC(=O)c2ccc3c(c2)OCO3)c1O , state its recorded inhibition.
24.7% (inactive)

Given CCCCCCC(=O)NNC(=O)CC(=O)Nc1ccccc1C(=O)O , state its recorded inhibition.
4.52% (inactive)

---

# assay comment: GAL4-VP16 reporter modulators, confirmation, counter-screen for NR2E3 agonist project, cell-based, luminescence, CHO-S, high throughput (AID 624379);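 further: luciferase from a UAS reporter driven by GAL4-VP16 transactivation; 0% = DMSO with VP16-transfected cells and 100% = DMSO with cells lacking VP16; higher means less reporter light so more repression of VP16 activity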
# conditions used: CHO-S GAL4-VP16 luciferase reporter, at 3.98 µM, stronger effect = higher value
The list shows a part of the results.
property: inhibition (%)
The answer is to be given in %; state only the numeric part.

Given CCC(C)C(N=C1NS(=O)(=O)c2ccccc21)C(=O)N1CCC(C)CC1 (stereo unspecified) , state its recorded inhibition.
-4.13

Given Fc1ccc2[nH]c3c(N4CCSCC4)ncnc3c2c1 , state its recorded inhibition.
63.2

Given COc1ccccc1Oc1ccc(S(=O)(=O)Nc2cccnc2)cc1 , state its recorded inhibition.
75.8

Given COc1cccc(CNS(=O)(=O)c2ccc3c(c2)CC(C)N3C(=O)C2CCC2)c1 (stereo unspecified) , state its recorded inhibition.
58.5

Given COc1ccc(C(=O)NC2CCCc3c2cnn3-c2cccc(C)c2C)c(OC)n1 (stereo unspecified) , state its recorded inhibition.
74.1

Given CSc1ncccc1C(=O)Nc1nc2ccc(F)cc2s1 , state its recorded inhibition.
25.2

Given O=C(c1ccc(N2CCCC2=O)cc1)N1CCN(c2ccc(C(F)(F)F)cc2[N+](=O)[O-])CC1 , state its recorded inhibition.
74.9

Given O=C(Nc1nnc(-c2ccccc2)o1)c1cc(-c2cccs2)nc2ccccc12 , state its recorded inhibition.
12.6

Given CCCCCCCCn1c2c(c(=N)c3c1CCC3)CCCC2 , state its recorded inhibition.
91.4

Given CC(C)(C)c1ccc(Oc2ccc(N)cc2)cc1 , state its recorded inhibition.
71.6

Given CC(=O)N1CCCc2cc(S(=O)(=O)N3CCCC(C(=O)N4CCN(c5cccc(Cl)c5)CC4)C3)ccc21 (stereo unspecified) , state its recorded inhibition.
70.2

Given O=S(=O)(c1cccc(Cn2nnc(-c3ccc(F)cc3)n2)c1)N1CCOCC1 , state its recorded inhibition.
39.4

Given COc1ccc(C(=O)Nc2ccccc2C(=O)N/N=C/c2ccc(O)c(OC)c2)cc1 , state its recorded inhibition.
-33

Given O=C(Nc1ccccc1Cl)/C(Cl)=C(\Cl)S(=O)c1ccccc1 (stereo unspecified) , state its recorded inhibition.
47.4

Given Cc1ccc(OCC(=O)c2cc(C)n(Cc3ccco3)c2C)c([N+](=O)[O-])n1 , state its recorded inhibition.
52.5

Given COc1cc(NS(=O)(=O)c2ccc3ccccc3c2)c2ncccc2c1 , state its recorded inhibition.
31.6

Given Cn1nccc1C(=O)NC1CCCc2c1cnn2-c1ccccc1F (stereo unspecified) , state its recorded inhibition.
86.2

Given CCCNc1ncnc2sc(C)c(C)c12 , state its recorded inhibition.
29.6

Given COc1cc(NC(=O)c2ccccc2NS(=O)(=O)c2ccc(Cl)s2)cc(OC)c1 , state its recorded inhibition.
90.3

Given O=C1/C(=C\c2ccc([N+](=O)[O-])cc2)CS(=O)(=O)C/C1=C/c1ccc([N+](=O)[O-])cc1 , state its recorded inhibition.
53.2

Given CCOC(=O)N1CCN(C(=O)c2ccc(S(=O)(=O)Nc3cccc(C(F)(F)F)c3)cc2)CC1 , state its recorded inhibition.
47.3

---

# Test system: transactivating tegument protein VP16 (Human herpesvirus 1), Gal4-VP16 luciferase reporter
# assay comment: VP16 transactivation inhibitors, counter-screen for SRC3 inhibitor project, cell-based, luminescence, high throughput (AID 588794)
# conditions used: mammalian cells, VP16-driven luciferase reporter luminescence; at 3.6 µM
Calls of active or inactive are those of the source. Rule as the data show it: active = inhibition above about 30%; inactive = the rest.
// classify into active, inactive

Record lookup: outcome of this test for O=C(c1ccc(Cl)cc1)C(Cn1cncn1)C(Sc1ccccc1)c1ccccc1 (stereo not given) ?
inactive

Record lookup: outcome of this test for CC(=NNC(=S)N1CCCC1)c1ccccn1 ?
active

Record lookup: outcome of this test for Clc1ccc2nnnc(-c3ccccc3)c2c1 ?
active

Record lookup: outcome of this test for Cc1ccc(/C=C/c2ccc(N(C)C)cc2)[n+](C)c1 ?
active

Record lookup: outcome of this test for Cc1cccc(/C=N/n2c(-c3ccncc3)n[nH]c2=S)c1 ?
inactive
